System: A-427
Assay: relative viability (nuclei count vs DMSO), 5 days (fraction); higher = more cells survive
Settings: first compound 0.005 µM
readout_label: relative viability
Format: numeric value only, no unit, no commentary.

Worked examples follow.
CC1(C)CCC(c2ccc(Cl)cc2)=C(CN2CCN(c3ccc(C(=O)NS(=O)(=O)c4ccc(N[C@H](CCN5CCOCC5)CSc5ccccc5)c(S(=O)(=O)C(F)(F)F)c4)cc3)CC2)C1 [Navitoclax] + C[C@]1(O)C[C@@H](c2nc(-c3ccc4ccc(-c5ccccc5)nc4c3)c3c(N)nccn32)C1 [Linsitinib] (partner 1 µM); 1.13
CC1(C)CCC(c2ccc(Cl)cc2)=C(CN2CCN(c3ccc(C(=O)NS(=O)(=O)c4ccc(N[C@H](CCN5CCOCC5)CSc5ccccc5)c(S(=O)(=O)C(F)(F)F)c4)cc3)CC2)C1 [Navitoclax] + COc1cccc2cc(-c3nc([C@H]4CC[C@H](C(=O)O)CC4)n4ncnc(N)c34)[nH]c12 [OSI-027] (partner 0.5 µM); 0.485

Kindly consider the entry below.
Consider the molecule CC1(C)CCC(c2ccc(Cl)cc2)=C(CN2CCN(c3ccc(C(=O)NS(=O)(=O)c4ccc(N[C@H](CCN5CCOCC5)CSc5ccccc5)c(S(=O)(=O)C(F)(F)F)c4)cc3)CC2)C1 [Navitoclax] + CS(=O)(=O)N1CCN(Cc2cc3nc(-c4cccc5[nH]ncc45)nc(N4CCOCC4)c3s2)CC1 [Pictilisib] (partner 1 µM) and give its recorded relative viability. 0.675

---

Tested on: NCI-H1755
Assay: relative viability (nuclei count vs DMSO), 5 days (fraction); higher = more cells survive
Conditions: first compound 0.253 µM
# relative viability values compiled below
Form field (numeric): enter value without unit.

Please review the entries below; each comes with its answer.
Oc1nc(-c2ccc(C(F)(F)F)cc2)nc2c1CSCC2 [XAV939] + Cc1nc(NC(=O)N2CCC[C@H]2C(N)=O)sc1-c1ccnc(C(C)(C)C(F)(F)F)c1 [Alpelisib] (partner 2 µM); 0.808
Oc1nc(-c2ccc(C(F)(F)F)cc2)nc2c1CSCC2 [XAV939] + Cc1nc(Nc2ncc(C(=O)Nc3c(C)cccc3Cl)s2)cc(N2CCN(CCO)CC2)n1 [Dasatinib] (partner 0.075 µM); 0.324
Oc1nc(-c2ccc(C(F)(F)F)cc2)nc2c1CSCC2 [XAV939] + CC(C)C[C@H](NC(=O)[C@H](Cc1ccccc1)NC(=O)c1cnccn1)B(O)O [Bortezomib] (partner 0.002 µM); 0.884
C=C1C(=O)O[C@@H](CCCCCCCC)[C@@H]1C(=O)O [C-75] + N=C(N)NC(=N)NCCc1ccccc1 [Phenformin] (partner 250 µM); 0.587
C=C1C(=O)O[C@@H](CCCCCCCC)[C@@H]1C(=O)O [C-75] + CC1(C)CCC(c2ccc(Cl)cc2)=C(CN2CCN(c3ccc(C(=O)NS(=O)(=O)c4ccc(N[C@H](CCN5CCOCC5)CSc5ccccc5)c(S(=O)(=O)C(F)(F)F)c4)cc3)CC2)C1 [Navitoclax] (partner 0.5 µM); 0.935
Oc1nc(-c2ccc(C(F)(F)F)cc2)nc2c1CSCC2 [XAV939] + Cc1cc(Nc2cc(N3CCN(C)CC3)nc(Sc3ccc(NC(=O)C4CC4)cc3)n2)n[nH]1 [Tozasertib] (partner 0.1 µM); 0.518
C=C1C(=O)O[C@@H](CCCCCCCC)[C@@H]1C(=O)O [C-75] + C[C@]1(O)C[C@@H](c2nc(-c3ccc4ccc(-c5ccccc5)nc4c3)c3c(N)nccn32)C1 [Linsitinib] (partner 1 µM); 0.887
C=C1C(=O)O[C@@H](CCCCCCCC)[C@@H]1C(=O)O [C-75] + C[C@@H](Oc1cc(-c2cnn(C3CCNCC3)c2)cnc1N)c1c(Cl)ccc(F)c1Cl [Crizotinib] (partner 1 µM); 0.853

Would you kindly look at the next entry?
Read off the recorded relative viability for Oc1nc(-c2ccc(C(F)(F)F)cc2)nc2c1CSCC2 [XAV939] + O=C(CCCCCCC(=O)Nc1ccccc1)NO [Vorinostat] (partner 1 µM) 0.729
